- Tested on: UACC-257 melanoma
- measurement.description: NCI-60 one-dose screen, 48 h
- condition: 10 µM
This is part of a sample that, as a whole, favours compounds with a hit. Of some 83,000 tested, about 20% had one in any assay. Active and inactive are the calls of the source. The calls were made as follows: active = growth percent below 10; inactive = the rest.
Output constraint: value belongs to active, inactive

1) O=S(=O)(O)c1ccc(Cl)cc1 :: inactive
2) COc1cc2cc(Oc3ccc(NC(=O)Nc4ccc(C(F)(F)F)cc4)cc3)c(C)nc2cc1OC :: inactive
3) O=C(N/N=C/c1ccc(Cl)cc1)c1ccc(Cc2n[nH]c(=O)c3cccnc23)cc1 :: inactive
4) S=C(NCc1ccccc1)NCc1ccccc1 :: inactive
5) CN(C)CCCOc1ccc(NC2=C(Cl)C(=O)C(Nc3ccc(OCCCN(C)C)cc3)=C(Cl)C2=O)cc1 :: active
6) CC(C)C1=C(O)C2=C(C(=O)C1=O)[C@@]1(C)CCCC(C)(C)[C@@H]1CC2 :: inactive
7) C=CCN(CC=C)C(=O)[C@H](CC)[C@@H]1CC[C@@H](C)[C@@H]([C@H](C)[C@@H](O)[C@@H](C)C(=O)[C@H](CC)C2O[C@]3(C=CC(=O)[C@]4(CC[C@@](C)([C@H]5CC[C@](O)(CC)[C@H](C)O5)O4)O3)[C@H](C)C[C@@H]2C)O1 (some centres undefined) :: inactive
8) O=[N+]([O-])c1cc(Cl)cc(Cl)c1O :: inactive

Exercise: Write down the call the test reported for this compound. Item: "COc1cc(OC)c2c(=O)c(O)c(-c3ccccc3)oc2c1"
Solution: inactive

Exercise: Write down the call the test reported for this compound. Item: "CCOC(=O)c1cc(C(=O)c2ccc(Cl)cc2)n2ccc(-c3cc[n+](CC(=O)c4ccc(OC)cc4)cc3)cc12"
Solution: inactive

Exercise: Write down the call the test reported for this compound. Item: "CN1CCN(CCCn2c(=O)c3sc4ncccc4c3n3nnc(-c4ccccc4)c23)CC1"
Solution: active

* * *

- System: NCI-H23 lung
- measurement.description: NCI-60 one-dose screen, 48 h (100 = growth as untreated, 0 = no growth, -100 = all killed)
- condition: 10 µM
The panel holds about 83,000 compounds, 20% with a hit somewhere; the sample as a whole holds those more often.
Entries get a class label from measured growth. See ranges: low bracket = under 60%, middle bracket = from 60% up to 80%, high bracket = 80% and over

Reference set, count: 5
1) COc1ccc(NC(=O)C2CC3C=CC2C3)c([N+](=O)[O-])c1 (centres undefined) :: high bracket
2) O=C1c2ccccc2-c2c1c1cccnc1c(=O)n2C[C@H](O)CO :: low bracket
3) O=C(NCCCNS(=O)(=O)c1ccc(Cl)cc1)Nc1ccc(-n2cc(-c3ccncc3)c(-c3ccc(Cl)c(O)c3)n2)cc1 :: low bracket
4) Fc1ccc2[nH]cc(-c3nc(-c4ccsc4)cs3)c2c1 :: high bracket
5) C=CCN(CC=C)C(=O)[C@H](CC)[C@@H]1CC[C@@H](C)[C@@H]([C@H](C)[C@@H](O)[C@@H](C)C(=O)[C@H](CC)C2O[C@]3(C=C[C@@H](O)[C@]4(CC[C@@](C)([C@H]5CC[C@](O)(CC)[C@H](C)O5)O4)O3)[C@H](C)C[C@@H]2C)O1 (some centres undefined) :: low bracket

Exercise: Band of "C/C(=N\O)c1ccc(NC(=O)CSc2nnc(-c3ccccc3)n2-c2ccccc2)cc1" ?
Solution: middle bracket

Exercise: Band of "Nc1cc(Br)c(-c2nn3c(CCC(=O)c4nc5ccccc5[nH]4)nnc3s2)c(Br)c1" ?
Solution: high bracket

Exercise: Band of "O=C(N/N=C/c1ccc([N+](=O)[O-])cc1)c1ccccc1Nc1cccc(C(F)(F)F)c1" ?
Solution: high bracket

Exercise: Band of Cc1ccc(C2NC(=S)N3C(c4ccc(C)cc4)NC(=S)N23)cc1 (centres undefined) ?
Solution: low bracket

Exercise: Band of Cc1ccc(NCCN(C)CC(C)O)c2c(=O)c3ccc(Cl)cc3sc12 (centres undefined) ?
Solution: middle bracket

Exercise: Band of COc1cc(/C=C2\CCCC3C2=Nc2ccccc2NC3c2cc(OC)c(OC)c(OC)c2)cc(OC)c1OC (centres undefined) ?
Solution: low bracket

Exercise: Band of "Cc1ccc(N=Nc2ccccc2)cc1" ?
Solution: high bracket

Exercise: Band of COc1cc(/C=C2\CCCC3=C2NC(N)=NC3c2cc(OC)c(OC)c(OC)c2)cc(OC)c1OC (centres undefined) ?
Solution: low bracket

Exercise: Band of "Nc1ccn(Cc2nnc(CCC(=O)c3nc4ccccc4[nH]3)o2)c(=O)n1" ?
Solution: middle bracket

Exercise: Band of "COc1cc(-c2csc(NC(=O)Nc3ccc(Cl)c(C(F)(F)F)c3)n2)cc(OC)c1OC" ?
Solution: low bracket

Exercise: Band of "Cc1cccc(N=Cc2ccccc2O)c1C" ?
Solution: high bracket
